Target: Human Androgen Receptor (Homo sapiens)
Sequence (P10275 whole entry): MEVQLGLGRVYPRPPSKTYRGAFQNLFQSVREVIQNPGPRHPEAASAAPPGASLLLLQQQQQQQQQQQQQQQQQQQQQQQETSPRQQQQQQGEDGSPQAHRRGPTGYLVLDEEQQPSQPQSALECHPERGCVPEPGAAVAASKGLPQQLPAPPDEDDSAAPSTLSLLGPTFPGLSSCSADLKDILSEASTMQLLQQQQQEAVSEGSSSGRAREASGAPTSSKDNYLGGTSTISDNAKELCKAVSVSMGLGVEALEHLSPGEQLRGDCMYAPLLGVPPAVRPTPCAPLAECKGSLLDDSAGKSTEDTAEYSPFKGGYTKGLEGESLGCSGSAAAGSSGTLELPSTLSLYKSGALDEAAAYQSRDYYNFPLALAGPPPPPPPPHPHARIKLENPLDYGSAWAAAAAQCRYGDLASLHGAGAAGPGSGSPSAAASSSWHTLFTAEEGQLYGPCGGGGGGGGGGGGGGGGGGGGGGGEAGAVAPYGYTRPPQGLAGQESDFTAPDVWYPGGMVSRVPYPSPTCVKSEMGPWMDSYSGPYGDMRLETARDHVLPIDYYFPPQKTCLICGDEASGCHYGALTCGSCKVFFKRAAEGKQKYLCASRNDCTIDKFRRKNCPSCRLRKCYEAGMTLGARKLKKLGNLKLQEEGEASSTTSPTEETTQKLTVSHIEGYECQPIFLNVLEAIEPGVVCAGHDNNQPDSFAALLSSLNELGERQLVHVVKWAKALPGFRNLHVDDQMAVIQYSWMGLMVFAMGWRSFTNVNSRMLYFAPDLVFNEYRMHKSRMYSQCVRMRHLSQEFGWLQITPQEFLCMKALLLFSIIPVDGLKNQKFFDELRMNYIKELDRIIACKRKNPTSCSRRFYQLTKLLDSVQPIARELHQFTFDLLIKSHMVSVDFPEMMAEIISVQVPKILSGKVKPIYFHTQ
Assay: Androgen receptor binding assay ([3H]R1881, HAP) in cytosol of HEK-293 cells transfected with hAR
Details: Table 2; relative to R1881 = 100, transfected cells
Metric Name: Human Androgen Receptor Binding (%) RBA R1881 = 100
Give bare numbers, in %.

Completed entries (count: 2):
In [3]: df
Out[3]:
                                   molecule  numeric_result
0  Cc1cc(CN2CCCC2C)ccc1OCCC1(O)CCN(c2ccc(C#N)c(Cl)c2)CC1 (centres unmarked)             1.0
1  CCC(CC)NC(CC)c1ccc(OCCC2(O)CCN(c3ccc(C#N)c(C(F)(F)F)c3)CC2)c(C)c1 (centres unmarked)             8.1

For every record below, what is its Human Androgen Receptor Binding (%) RBA R1881 = 100?
1. Cc1cc(CN2CCOCC2)ccc1OCCC1(O)CCN(c2ccc(C#N)c3ccccc23)CC1
2. Cc1cc(CN2C[C@@H](C)O[C@H](C)C2)ccc1OCCC1(O)CCN(c2ccc(C#N)c(C(F)(F)F)c2)CC1
3. Cc1cc(CN2CCCC2)ccc1OCCC1(O)CCN(c2ccc(C#N)c(Cl)c2)CC1 [EM-7678]
4. N#Cc1ccc(N2CCC(O)(CCOc3ccc(CN4CCOCC4)cc3F)CC2)cc1C(F)(F)F

Solution:
1: 0.3; 2: 2.5; 3: 3.5; 4: 1.6

* * *

System: rat prostate, seminal vesicle, levator ani muscle
Assay: Systemic antiandrogenic activity in orchidectomized immature male rats with DHT implant
Format: in vivo
Conditions: Rattus norvegicus, 168 h, read-out: Lev Ani % inhibition, Table 1; rat +DHT, s.c. or p.o. (route not marked), levator ani, 0.5 mg/animal daily 7 days
Metric Name: inhibition in vivo at 0.5 mg
Give the figure together with its unit, number first.

The examples below pair each entry with its known result.
>>> print(df.to_string())
                                   compound                   metric_name  result
0  CC1(C)C(=O)N(c2ccc(C#N)c(C(F)(F)F)c2)C(=S)N1CCCOc1ccc(CN2CCC(O)C2)cc1 (stereo not drawn) [EM-7365]  inhibition in vivo at 0.5 mg     19%
1  CC(C)NC(=O)c1ccc(OCCCN2C(=S)N(c3ccc(C#N)c(C(F)(F)F)c3)C(=O)C2(C)C)cc1 [EM-7202]  inhibition in vivo at 0.5 mg      0%
2  CC(C)NCc1ccc(OCCCN2C(=S)N(c3ccc(C#N)c(C(F)(F)F)c3)C(=O)C2(C)C)nc1 [EM-7848]  inhibition in vivo at 0.5 mg     68%

Please look at the items below and tell me inhibition in vivo at 0.5 mg for each one, in order.
1. CC(C)NCc1cccc(OCCCN2C(=S)N(c3ccc(C#N)c(C(F)(F)F)c3)C(=O)C2(C)C)c1 [EM-7096]
2. Cc1cc(CN2CCCC2)ccc1OCCCN1C(=S)N(c2ccc(C#N)c3ccccc23)C(=O)C1(C)C [EM-7775]
3. CCC(C)NCc1ccc(OCCCN2C(=S)N(c3ccc(C#N)c(C(F)(F)F)c3)C(=O)C2(C)C)cc1 (stereo not drawn) [EM-7225]
4. CN(C)Cc1ccc(OCCCN2C(=S)N(c3ccc(C#N)c(C(F)(F)F)c3)C(=O)C2(C)C)cc1 [EM-7192]
5. Cc1cc(CN2CCOCC2)ccc1OCCCN1C(=S)N(c2ccc(C#N)c(C(F)(F)F)c2)C(=O)C1(C)C [EM-7366]
6. CC(=O)c1ccc(OCCCN2C(=S)N(c3ccc(C#N)c(C(F)(F)F)c3)C(=O)C2(C)C)cc1 [EM-7168]
7. CCC(=O)c1cccc(OCCCN2C(=S)N(c3ccc(C#N)c(C(F)(F)F)c3)C(=O)C2(C)C)c1 [EM-7113]

Solution:
["50%", "10%", "14%", "0%", "16%", "0%", "58%"]
